- EXPERIMENTAL TARGET: T1, HLA-A2.1 MHC class I on the surface of T2 cells
- T1 construct: whole, on cells; MHC class I molecule stabilised on T2 cells by added peptide
- METHOD DESCRIPTION: T2 MHC class I stabilisation, flow cytometry with anti HLA-A2.1 mAb, peptide at 100 ug (printed '100 lg'), n = 3
METRIC NAME: Mean T2 binding ratio

INSERT INTO assay_data (binder, measured) VALUES
  ('LIIPSLERL (Synthetic peptide) [T21:656 peptide]', '0.921 ratio to DMSO control'),
  ('YLIHLLQEL (Synthetic peptide) [T21:765 peptide]', '2.86 ratio to DMSO control'),
  ('SLERLVNAI (Synthetic peptide) [T21:660 peptide]', '0.893 ratio to DMSO control'),
  ('VIAKFQNKL (Synthetic peptide) [T21:607 peptide]', '0.933 ratio to DMSO control');
